# target-under-test: T1, 重组人碱性成纤维细胞生长因子(bFGF) (human, UniProt P09038 143-288, limits assumed)
# T1 construct: Bought protein; also called 重组人bFGF; bFGF抗原
# T1 sequence (P09038 143-288 limits assumed): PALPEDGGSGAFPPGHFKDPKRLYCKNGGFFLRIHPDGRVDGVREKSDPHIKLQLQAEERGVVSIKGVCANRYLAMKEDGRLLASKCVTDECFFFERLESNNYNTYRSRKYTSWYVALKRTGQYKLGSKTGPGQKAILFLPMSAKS
# protocol-text: SPR, bFGF immobilised on the chip, nanobody 3.125-200 nM in flow
measured-property: Kd (nM)
Kindly provide the numeric value in nM only, without the unit symbol.

[[record]]
binder = "抗bFGF纳米抗体 Nb6 (VHH, Alpaca nanobody; Nickel-purified, anti-Flag detected; also called Nb bFGF) VHH: LQESGGDLVQPGGSLRLSCEVSGSNFSINDMGWYRQAPGKRREVVAGISSVGRTMYGDPVKGRFTISRDNAKNMVYLQMNRLKPEDTAVYYCHLYGDYRGTGFWGKGTQVTVSS"
observed_value = 10.3


Query block: Give its Kd value. Item: 抗bFGF纳米抗体 Nb3 (VHH, Alpaca nanobody; Nickel-purified, anti-Flag detected; also called Nb bFGF) VHH: LQESGGDLVQPGGSLRLSCEVSGSNFSINDMGWYRQAPGKRREVVAGISSVGRTMYADPVKGRFTISRDNAKNMVYLQMNRLKPEDTAVYYCHLYGDYRGTGFWGKGTQVTVSS
Result block: 5.37

The origin of these recorded values is patent CN108635579A.
